Quick reference for MIC among some compounds
Tested on: Staphylococcus aureus
Assay: Antibacterial activity against methicillin resistant Staphylococcus aureus USA300 FPR3757 assessed as inhibition of bacterial growth incubated for 20 to 24 hrs by microbroth serial dilution method
Assay type: functional
Settings: time 20-24 hrs, read-out: MIC100

sample_smiles	system_tested	MIC (µg/mL)
C=C[C@]1(C)C[C@@H](OC(=O)Cn2cc(-c3ccc(Cn4ccc5c(N)ncnc54)cc3)nn2)[C@]2(C)[C@H](C)CC[C@]3(CCC(=O)[C@H]32)[C@@H](C)[C@@H]1O	Staphylococcus aureus	0.06
C=C[C@]1(C)C[C@@H](OC(=O)Cn2cc(-c3cncc(NC(=O)c4ccc(OC)nc4)c3)nn2)[C@]2(C)[C@H](C)CC[C@]3(CCC(=O)[C@H]32)[C@@H](C)[C@@H]1O	Staphylococcus aureus	0.12
C=C[C@]1(C)C[C@@H](OC(=O)Cn2cc(-c3cccc(NC(=O)c4ccc(OC)cc4)c3)nn2)[C@]2(C)[C@H](C)CC[C@]3(CCC(=O)[C@H]32)[C@@H](C)[C@@H]1O	Staphylococcus aureus	0.12
C=C[C@]1(C)C[C@@H](OC(=O)Cn2cc(-c3cncc(C(=O)Nc4ccc(N)cc4)c3)nn2)[C@]2(C)[C@H](C)CC[C@]3(CCC(=O)[C@H]32)[C@@H](C)[C@@H]1O	Staphylococcus aureus	0.12
C=C[C@]1(C)C[C@@H](OC(=O)Cn2cc(-c3ccc(Cn4ccnc4N)cc3)nn2)[C@]2(C)[C@H](C)CC[C@]3(CCC(=O)[C@H]32)[C@@H](C)[C@@H]1O	Staphylococcus aureus	0.5
